TARGET_DESC: PD-1 (Homo sapiens (Human)) (UniProt Q15116)
Sequence (Q15116 21-288 limits assumed): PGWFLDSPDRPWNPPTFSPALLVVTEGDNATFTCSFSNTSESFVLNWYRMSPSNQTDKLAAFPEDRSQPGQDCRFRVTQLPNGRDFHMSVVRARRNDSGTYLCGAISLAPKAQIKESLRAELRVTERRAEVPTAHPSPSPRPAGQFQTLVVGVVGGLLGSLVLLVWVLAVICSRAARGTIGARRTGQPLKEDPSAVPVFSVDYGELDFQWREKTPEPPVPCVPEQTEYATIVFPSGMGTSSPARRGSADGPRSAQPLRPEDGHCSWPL
TEST: flow cytometry, Jurkat/PD-1 cells

BINDER	MFI at 50 nM
variant PD-L2 IgV-Fc I13V, H15Q, S67L, I86T (Fc fusion, not shown: a dimerising Fc or GST; small tags and cut ends) LFTVTVPKELYIVEQGSNVTLECNFDTGSHVNLGAITASLQKVENDTSPHRERATLLEEQLPLGKALFHIPQVQVRDEGQYQCIITYGVAWDYKYLTLK	21600
variant PD-L2 IgV-Fc I13V, H15Q, T47A, H69L, R76G, V89D (Fc fusion, not shown: a dimerising Fc or GST; small tags and cut ends) FTVTVPKELYIVEQGSNVTLECNFDTGSHVNLGAITASLQKVENDASPHRERATLLEEQLPLGKASFLIPQVQVGDEGQYQCIIIYGDAWDYKYLTLK	54300
variant PD-L2 IgV-Fc H15Q, R76G, I85F (SEQ ID NO 1500) (Fc fusion, not shown: a dimerising Fc or GST; small tags and cut ends) LFTVTVPKELYIIEQGSNVTLECNFDTGSHVNLGAITASLQKVENDTSPHRERATLLEEQLPLGKASFHIPQVQVGDEGQYQCIFIYGVAWDYKYLTLK	2940
variant PD-L2 IgV-Fc S39I, V89D (Fc fusion, not shown: a dimerising Fc or GST; small tags and cut ends) LFTVTVPKELYIIEHGSNVTLECNFDTGSHVNLGAITAILQKVENDTSPHRERATLLEEQLPLGKASFHIPQVQVRDEGQYQCIIIYGDAWDYKYLTLK	26100
